system: HCT-15 colon; test: NCI tumour cell line growth inhibition, 48 h
List of TGI values.

[
  {
    "Compound": "O=C(CCc1cc(-c2ccccc2)nc(=S)[nH]1)Nc1ccccc1[N+](=O)[O-]",
    "TGI": "> 100 µM"
  },
  {
    "Compound": "COC(=O)C1=C(C(=O)OC)SC(=C(N=Nc2ccccc2)c2ccccc2)S1",
    "TGI": "> 100 µM"
  },
  {
    "Compound": "CCOP(=O)(CN=C(c1ccccc1)c1ccccc1)OCC",
    "TGI": "> 100 µM"
  },
  {
    "Compound": "CCOC(=O)c1nc(Nc2ccc(Cl)cc2)c2ccccc2n1",
    "TGI": "> 50 µM"
  },
  {
    "Compound": "Cn1ccnc1C(=O)/C=C/c1ccc(CC(=O)Nc2ccc(C(F)(F)F)cc2)cc1",
    "TGI": "> 16.7 µM"
  },
  {
    "Compound": "CCc1nnc(-c2nsc3ccccc23)s1",
    "TGI": "> 100 µM"
  },
  {
    "Compound": "CC(C)C1COC(c2cccc(C3=N[C@@H](C(C)C)CO3)n2)=N1 (stereo partly drawn)",
    "TGI": "> 100 µM"
  },
  {
    "Compound": "NC(CCCCNC(=O)CNC(=O)OCc1ccccc1)C(=O)NC(CCCCNC(=O)CNC(=O)OCc1ccccc1)C(=O)NC(CCCCNC(=O)CNC(=O)OCc1ccccc1)C(=O)NC(CCCCNC(=O)CNC(=O)OCc1ccccc1)C(=O)NC(CCCCNC(=O)CNC(=O)OCc1ccccc1)C(=O)NC(CCCCNC(=O)CNC(=O)OCc1ccccc1)C(=O)O (stereo not drawn)",
    "TGI": "> 75 µM"
  },
  {
    "Compound": "COc1cc(/C=C/C(=O)c2sc(NNC(C)=O)nc2C)ccc1O",
    "TGI": "> 100 µM"
  },
  {
    "Compound": "COC(=O)C1=C(OC(=O)c2ccc(Cl)cc2)C(C(=O)OC)[C@@]2(O)[C@@H](C(=O)OC)C(c3ccccc3Cl)C[C@@H]1[C@@H]2C(=O)OC (stereo partly drawn)",
    "TGI": "> 100 µM"
  },
  {
    "Compound": "CCC1CCc2c(OC)ccc(OCC(=O)O)c2C1=O (stereo not drawn)",
    "TGI": "> 100 µM"
  },
  {
    "Compound": "C=CCCCC1CCCNC1=S (stereo not drawn)",
    "TGI": "> 100 µM"
  },
  {
    "Compound": "O=C1c2ccccc2CC1C1(O)C(=O)Nc2ccccc21 (stereo not drawn)",
    "TGI": "> 100 µM"
  }
]
